Reported inhibition in vivo at 100 mg/kg by item:
tested on: Rattus norvegicus; experiment: Antiinflammatory activity in Wistar albino rat assessed as inhibition of carrageenan-induced paw oedema at 100 mg/kg, po measured 3 hrs after carrageenan challenge; assay type: functional

| Cpd Smiles | inhibition in vivo at 100 mg/kg / % |
| --- | --- |
| Cc1ccc2c(Cc3nn4c(CO)c(-c5ccc(Cl)cc5)nc4s3)coc2c1 | 45.9 |
| Cc1ccc2c(Cc3nn4c(C#N)c(-c5ccc(Cl)cc5)nc4s3)coc2c1 | 43.4 |
| Cc1ccc2c(Cc3nn4c(C=O)c(-c5ccc(Cl)cc5)nc4s3)coc2c1 | 42.5 |
| Cc1ccc2c(Cc3nn4c(CO)c(-c5ccc(Br)cc5)nc4s3)coc2c1 | 36.6 |
| Cc1ccc2c(Cc3nn4c(CN5CCOCC5)c(-c5ccc(Cl)cc5)nc4s3)coc2c1 | 43.4 |

// provenance: ChEMBL document CHEMBL1140193
